Origin of measurements: patent US8975398B2

Target: NAMPT (Homo sapiens)
Sequence (P43490 whole entry): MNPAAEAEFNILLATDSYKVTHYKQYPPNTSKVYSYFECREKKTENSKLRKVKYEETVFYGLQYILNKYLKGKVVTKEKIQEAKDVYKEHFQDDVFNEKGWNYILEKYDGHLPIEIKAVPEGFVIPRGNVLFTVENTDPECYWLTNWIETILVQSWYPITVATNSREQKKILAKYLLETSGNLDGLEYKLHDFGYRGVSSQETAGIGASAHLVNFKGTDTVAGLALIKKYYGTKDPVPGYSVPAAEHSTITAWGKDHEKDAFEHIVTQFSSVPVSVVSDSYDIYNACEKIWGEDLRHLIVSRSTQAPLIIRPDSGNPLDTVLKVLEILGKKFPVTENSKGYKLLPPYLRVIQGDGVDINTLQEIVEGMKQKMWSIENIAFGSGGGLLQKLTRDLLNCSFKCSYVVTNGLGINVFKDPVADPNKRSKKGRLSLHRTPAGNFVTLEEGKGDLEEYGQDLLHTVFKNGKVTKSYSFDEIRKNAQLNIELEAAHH
Record form. Attribute: pIC50. Fill in for each entry.
Numbers only, as −log10 of the molar value.

> print(dat)
                                   compound  recorded.metric  endpoint.result
1  CCC(C)CN1CCC(Oc2ccc(NC(=O)C3CN(c4cccnc4)C3)cc2)CC1 (centres unmarked)            pIC50             9.16

Provide pIC50 values for the following items, in order.
1. CC(C)(C)C(=O)N1CCC(Oc2ccc(NC(=O)C3CN(c4cccnn4)C3)cc2)CC1
2. O=C(Nc1ccc(OC2CCN(C(=O)Cc3ccc(F)cc3)CC2)cc1)C1CN(c2cccnn2)C1

[9.09, 9.25]

Provide pIC50 values for the following items, in order.
1. CC(C)CCC(=O)N1CCC(c2ccc(NC(=O)C3CN(c4cccnn4)C3)cc2)CC1
2. CC(C)(C)C(=O)N1CCC(c2ccc(NC(=O)[C@H]3CCN(c4cccnn4)C3)cc2)CC1
3. O=C(Nc1ccc(OC2CCN(C(=O)C3CC3)CC2)cc1)C1CN(c2cccnn2)C1

[8.98, 8.38, 9.06]

Provide pIC50 values for the following items, in order.
1. O=C(Nc1ccc(C2CCN(C(=O)c3cccs3)CC2)cc1)C1CN(c2cccnc2)C1
2. Cc1ncccc1N1CC(C(=O)Nc2ccc(C3CCN(C(=O)c4ccc(Cl)cc4)CC3)cc2)C1
3. O=C(Nc1ccc(C2CCN(C(=O)c3cccc(Cl)c3)CC2)cc1)C1CN(c2cccnn2)C1
4. O=C(Nc1ccc(C2CCN(C(=O)CC3C[C@@H]4CC[C@H]3C4)CC2)cc1)C1CN(c2cccnc2)C1 (some centres unmarked)
5. O=C(Nc1ccc(C2CCN(C(=O)c3cccs3)CC2)cc1)C1CN(c2cccnn2)C1
6. CCCCC(=O)N1CCC(c2ccc(NC(=O)C3CN(c4cccnc4)C3)cc2)CC1
7. CC(C)(C)CC(=O)N1CCC(Oc2ccc(NC(=O)C3CN(c4ccnnc4)C3)cc2)CC1
8. Cc1ncccc1N1CC(C(=O)Nc2ccc(C3CCN(C(=O)CN4CCOCC4)CC3)cc2)C1

1. 9.41
2. 7.07
3. 9.12
4. 9.30
5. 9.33
6. 9.68
7. 7.72
8. 6.91

Provide pIC50 values for the following items, in order.
1. O=C(Nc1ccc(OC2CCN(C(=O)Cc3cccc(F)c3)CC2)cc1)C1CN(c2cccnn2)C1
2. O=C(Nc1ccc(C2CCN(C(=O)C3CCCCC3)CC2)cc1)C1CN(c2cccnn2)C1
3. O=C(Nc1ccc(C2CCN(C(=O)CCN3CCCCC3)CC2)cc1)C1CN(c2cccnc2)C1
4. COCCOCC(=O)N1CCC(c2ccc(NC(=O)C3CN(c4cccnc4)C3)cc2)CC1
5. O=C(Nc1ccc(C2CCN(CC3CCCC3)CC2)cc1)C1CN(c2cccnc2)C1

[9.16, 9.18, 9.27, 9.55, 9.19]

Provide pIC50 values for the following items, in order.
1. Cc1ncccc1N1CC(C(=O)Nc2ccc(C3CCN(C(=O)c4ccccc4Cl)CC3)cc2)C1
2. Cc1ncccc1N1CC(C(=O)Nc2ccc(C3CCN(C(=O)CN4CCN(C)CC4)CC3)cc2)C1
3. CCC(C)(C)CN1CCC(Oc2ccc(NC(=O)C3CN(c4cccnc4)C3)cc2)CC1

1. 7.36
2. 6.81
3. 8.74

Provide pIC50 values for the following items, in order.
1. Cc1ncccc1N1CC(C(=O)Nc2ccc(C3CCN(C(=O)c4cc(Cl)cc(Cl)c4)CC3)cc2)C1
2. O=C(Nc1ccc(OC2CCN(C(=O)c3ccc(Cl)cc3)CC2)cc1)C1CN(c2ccnnc2)C1
3. O=C(Nc1ccc(OC2CCN(C(=O)c3ccsc3)CC2)cc1)C1CN(c2ccnnc2)C1
4. O=C(Nc1ccc(OC2CN(C(=O)C3CCCO3)C2)cc1)C1CN(c2ccnnc2)C1 (centres unmarked)
5. O=C(Nc1ccc(OC2CCN(C(=O)c3cccc(C(F)(F)F)c3)CC2)cc1)C1CN(c2cccnn2)C1

1. 7.79
2. 7.33
3. 7.48
4. 7.46
5. 8.99

Provide pIC50 values for the following items, in order.
1. O=C(Nc1ccc(OC2CN(C(=O)C3CCOC3)C2)cc1)C1CN(c2ccnnc2)C1 (centres unmarked)
2. O=C(Nc1ccc(OC2CN(C(=O)C(F)(F)c3ccccc3)C2)cc1)C1CN(c2ccnnc2)C1
3. Cc1ncccc1N1CC(C(=O)Nc2ccc(C3CCN(C(=O)CC(F)(F)F)CC3)cc2)C1
4. O=C1CC[C@@H](C(=O)N2CCC(c3ccc(NC(=O)C4CN(c5cccnc5)C4)cc3)CC2)N1

1: 7.30; 2: 7.74; 3: 6.98; 4: 9.61

Case CCC(C)CC(=O)N1CCC(c2ccc(NC(=O)C3CN(c4cccnc4C)C3)cc2)CC1 (centres unmarked) , NAMPT (Homo sapiens), pIC50 recorded as 7.15
